Measured target: human α1B‐adrenoceptor (Homo sapiens)
Construct: expressed in transfected cells; host or cells: CHO-K1
Sequence (P35368 1-520): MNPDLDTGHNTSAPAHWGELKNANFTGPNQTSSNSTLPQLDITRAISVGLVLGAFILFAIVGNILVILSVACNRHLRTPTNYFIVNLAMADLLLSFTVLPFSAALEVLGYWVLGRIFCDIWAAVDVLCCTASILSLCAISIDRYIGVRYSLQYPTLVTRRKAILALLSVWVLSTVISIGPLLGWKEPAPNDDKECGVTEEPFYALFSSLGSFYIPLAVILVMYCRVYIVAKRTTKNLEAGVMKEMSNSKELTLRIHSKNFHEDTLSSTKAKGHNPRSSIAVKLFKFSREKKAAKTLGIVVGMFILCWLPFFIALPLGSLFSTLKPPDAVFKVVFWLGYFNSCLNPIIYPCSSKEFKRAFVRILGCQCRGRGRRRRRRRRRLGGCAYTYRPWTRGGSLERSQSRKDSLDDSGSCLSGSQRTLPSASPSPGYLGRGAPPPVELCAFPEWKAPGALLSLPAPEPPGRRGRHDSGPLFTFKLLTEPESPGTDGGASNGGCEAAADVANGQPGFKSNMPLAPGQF
Test: ERK1/2‐phosphorylation (Surefire Alphascreen), CHO‐α1B cells
Assay type: cell-based
Setup conditions: CHO‐α1B cells; for bi‐phasic responses the initial stimulatory part
Reported endpoint: ERK1/2‐phosphorylation Log EC50

- CCC1(c2cnc[nH]2)Cc2ccccc2C1: No response
- COCc1c(Cl)ccc2c1CC[C@H]2c1ncc[nH]1: No response
- CCc1cccc(CC)c1NC1=NCCN1: −7.33 ± 0.12
- C1COC(NC(C2CC2)C2CC2)=N1: No response

----------
Documented cAMP accumulation Log EC50 across a set of compounds
Measured target: human α1B‐adrenoceptor (Homo sapiens, UniProt P35368)
Construct: expressed in transfected cells; host or cells: CHO-K1
Sequence (P35368 1-520): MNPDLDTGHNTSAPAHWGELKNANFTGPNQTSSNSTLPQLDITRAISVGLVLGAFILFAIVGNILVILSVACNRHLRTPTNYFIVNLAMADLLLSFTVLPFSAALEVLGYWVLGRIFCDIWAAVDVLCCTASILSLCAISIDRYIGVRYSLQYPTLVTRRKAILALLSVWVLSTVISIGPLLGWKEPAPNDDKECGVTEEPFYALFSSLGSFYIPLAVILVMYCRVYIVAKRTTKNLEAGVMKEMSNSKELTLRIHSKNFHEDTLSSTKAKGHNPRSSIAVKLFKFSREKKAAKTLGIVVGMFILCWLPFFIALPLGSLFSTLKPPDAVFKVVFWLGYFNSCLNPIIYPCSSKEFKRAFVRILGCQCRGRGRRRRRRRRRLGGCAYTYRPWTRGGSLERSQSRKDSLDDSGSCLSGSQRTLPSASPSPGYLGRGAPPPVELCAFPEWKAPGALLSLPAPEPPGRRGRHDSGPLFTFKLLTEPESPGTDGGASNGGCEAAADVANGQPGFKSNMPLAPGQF
Test: ^3H‐cAMP accumulation, CHO‐α1B cells
Format: cell-based
Setup conditions: CHO‐α1B cells
Reported endpoint: cAMP accumulation Log EC50

* CCc1cccc(CC)c1NC1=NCCN1 | −6.52
* Nc1cc(Cl)c(N=C2NCCN2)c(Cl)c1 | −7.48
* CS(=O)(=O)Nc1c(O)ccc2c1CCCC2C1=NCCN1 (centres unmarked) | −5.63

The measured values listed here are drawn from paper PMC8343220.
